- Test system: Mycobacterium tuberculosis Erdman (autoluminescent)
- procedure-details: total FIC90 (Loewe) at 90% inhibition, three-drug combination (log2); higher = more antagonistic
- test-context: in vitro model: cholesterol-high 0.2 mM; time point: terminal (~4-5 doublings, model-specific)
observation-type: total FIC90
Just the number.

As a guide, the following entries are already answered.
compound: O=[N+]([O-])c1cn2c(n1)OC[C@@H](OCc1ccc(OC(F)(F)F)cc1)C2 [pretomanid] + NC(=O)c1cnccn1 [pyrazinamide] + CO[C@H]1/C=C/O[C@@]2(C)Oc3c(C)c(O)c4c(O)c(c(/C=N/N5CCN(C6CCCC6)CC5)c(O)c4c3C2=O)NC(=O)/C(C)=C\C=C\[C@H](C)[C@H](O)[C@@H](C)[C@@H](O)[C@@H](C)[C@H](OC(C)=O)[C@@H]1C [rifapentine]
total FIC90: 0.566

compound: CC(C)/N=c1\cc2n(-c3ccc(Cl)cc3)c3ccccc3nc-2cc1Nc1ccc(Cl)cc1 [clofazimine] + CC(=O)NC[C@H]1CN(c2ccc(N3CCOCC3)c(F)c2)C(=O)O1 [linezolid] + O=[N+]([O-])c1cn2c(n1)OC[C@@H](OCc1ccc(OC(F)(F)F)cc1)C2 [pretomanid]
total FIC90: 0.391

Could you share which total FIC90 value was measured for CC(C)/N=c1\cc2n(-c3ccc(Cl)cc3)c3ccccc3nc-2cc1Nc1ccc(Cl)cc1 [clofazimine] + COc1c(N2C[C@@H]3CCCN[C@@H]3C2)c(F)cc2c(=O)c(C(=O)O)cn(C3CC3)c12 [moxifloxacin] + O=[N+]([O-])c1cn2c(n1)OC[C@@H](OCc1ccc(OC(F)(F)F)cc1)C2 [pretomanid] ?
0.651
